Recorded z-score values for a group of compounds are listed next.
target: NADPH oxidase 2 (Homo sapiens) (UniProt P04839); test: NOX2-dependent H2O2 signal modulators, primary screen, NOX inhibitor project, cell-based, HEK293-NOX2, PMA-stimulated, Amplex Red fluorescence (AID 1159); details: 45 min, higher = more signal, called active from +8 up or from −8 down; also: test concentration not given here
Sequence (P04839 whole entry, looked up): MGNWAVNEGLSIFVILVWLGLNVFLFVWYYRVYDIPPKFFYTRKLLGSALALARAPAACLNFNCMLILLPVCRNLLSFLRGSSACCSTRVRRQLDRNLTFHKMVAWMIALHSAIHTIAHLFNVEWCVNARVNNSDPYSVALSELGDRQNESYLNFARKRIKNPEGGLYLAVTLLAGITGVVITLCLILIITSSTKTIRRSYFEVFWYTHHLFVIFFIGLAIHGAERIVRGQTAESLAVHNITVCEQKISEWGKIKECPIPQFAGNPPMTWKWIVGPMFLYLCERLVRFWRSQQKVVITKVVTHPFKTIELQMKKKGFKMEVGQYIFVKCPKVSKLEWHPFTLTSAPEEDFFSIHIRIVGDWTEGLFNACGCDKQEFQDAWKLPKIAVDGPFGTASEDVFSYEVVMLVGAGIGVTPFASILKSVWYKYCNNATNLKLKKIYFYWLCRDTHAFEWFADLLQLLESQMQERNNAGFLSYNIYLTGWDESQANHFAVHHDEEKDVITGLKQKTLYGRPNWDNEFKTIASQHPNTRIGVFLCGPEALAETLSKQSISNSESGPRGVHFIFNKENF
Output: the number by itself.

>  <Compound String>
COc1cc(CO)cc(I)c1O[C@H]1C=C(C(=O)NCCO)C[C@@H](NCc2ccccc2F)[C@@H]1O

>  <z-score>
0.0575

$$$$
>  <Compound String>
O=C1c2ccccc2[C@](Cc2ccccc2I)(C(=O)NCCN2CCOCC2)[C@H](c2ccc(CO)cc2)N1Cc1ccccc1

>  <z-score>
0.744

$$$$

QUERY: Consider the compound "CCOC(=O)C[C@H]1[C@H](OC(=O)c2ccccc2-c2ccccc2)[C@@H](NC(=O)CC(C)C)c2cc(OCCCO)ccc2N1C(=O)c1ccc2ccccc2n1" and give its measured z-score.
RESULT: -0.274

QUERY: Consider the compound "COCCCNC(=O)[C@]1(Cc2ccccc2N=[N+]=[N-])N=C(c2ccc(OCCCO)cc2)O[C@@H]1c1ccccc1N=[N+]=[N-]" and give its measured z-score.
RESULT: -1.23

====

assay: anti-His antibody binders, primary screen, artefact control for SMM control protein annotation, biochemical, small-molecule microarray, 635 nm fluorescence (AID 1128); settings: anti-His Alexa647 antibody binding, higher = more signal;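 also: score merges feature fluorescence with signal-to-noise for each printed compound spot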
Recorded composite z-score values for a group of compounds are listed next.
Output: the number by itself.

>  <Compound>
COCCCNC(=O)[C@]1(Cc2ccccc2CN=[N+]=[N-])N=C(c2ccc(OCCCO)cc2)O[C@@H]1c1ccccc1

>  <composite z-score>
2.83

$$$$

QUERY: Consider the compound "COc1ccc(NC(=O)O[C@H]2[C@H](OC(=O)Nc3ccc4c(c3)OCO4)[C@@H](OC(=O)Nc3ccc4c(c3)OCO4)[C@@H](OC)O[C@@H]2CO)cc1" and give its measured composite z-score.
RESULT: 1.34

QUERY: Consider the compound "COc1cc(CO)cc(I)c1O[C@H]1C=C(C(=O)NCCO)C[C@@H](NCc2ccccc2F)[C@@H]1O" and give its measured composite z-score.
RESULT: 0.271

QUERY: Consider the compound "C=C(CCCC)/C(=C/C[C@@H](OC(C)=O)c1ccc(CO)o1)c1cc(C(=O)OC)ccc1OC" and give its measured composite z-score.
RESULT: 0.746

QUERY: Consider the compound "CCCC[C@@H]1C[C@H]1[C@@H](NC(=O)c1ccccc1)c1ccc(Cl)cc1" and give its measured composite z-score.
RESULT: -0.0782

QUERY: Consider the compound NC(=O)N1C(=O)C2C(C1=O)C1C=C(c3ccc(CO)cc3)C2C(C2CC2)N1Cc1sc2ccccc2c1Cl (stereo not drawn) and give its measured composite z-score.
RESULT: 2.42

QUERY: Consider the compound "CC(=O)NCCCC[C@@H]1NC(=O)[C@@H]2C[C@H](C(=O)O)[C@H](c3ccc(O)cc3)N2C1=O" and give its measured composite z-score.
RESULT: 2.07

QUERY: Consider the compound O=C1NC(=O)C2C1C=CC(C(O)c1ccc(Br)cc1)N2Nc1ccccn1 (stereo not drawn) and give its measured composite z-score.
RESULT: 1.32

====

assay: COS7 lysate on small-molecule microarray, probe aHis, 635 nm (AID 1123); conditions: COS7 cell lysate, fluorescence, higher = more signal;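 also: z-score combines 667nm fluorescence intensity with signal-to-noise per printed compound spot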
composite z-score of 0.4 or higher: criterion met. Under 0.4: criterion not met.

Study these solved cases before continuing.
>  <Compound>
COc1ccc(C(O)C2C=CC3C(=O)N(c4ccccc4)C(=O)C3N2Nc2ccccc2)cc1OCc1ccccc1 (stereo not drawn)

>  <Class Label>
criterion met

$$$$
>  <Compound>
COC(=O)[C@@]1(Cc2ccccc2)[C@H]2c3cc(C(=O)N4CCCC4)n(C[C@H](O)CO)c3C[C@H]2CN1C(=O)c1ccccc1

>  <Class Label>
criterion met

$$$$
>  <Compound>
Cc1ccc(S[C@]2(C(=O)NCC(C)C)CC(=O)N(Cc3ccccc3Cl)[C@@H]2c2ccc(CO)cc2I)cc1

>  <Class Label>
criterion not met

$$$$
>  <Compound>
CN(C)CCCNC(=O)[C@@]1(C)c2ccccc2C(=O)N(Cc2cc(C(F)(F)F)cc(C(F)(F)F)c2)[C@H]1c1ccc(CO)cc1

>  <Class Label>
criterion not met

$$$$

QUERY: Test whether the compound "CC(C)(C)OC(=O)CC[C@]1(C(=O)O)N=C(c2ccc(OCCCO)cc2)O[C@H]1c1ccccc1" records composite z-score of 0.4 or higher.
RESULT: criterion met

QUERY: Test whether the compound "C[C@]1(C(=O)O)c2ccccc2C(=O)N(Cc2ccccc2)[C@H]1c1ccc(CO)cc1" records composite z-score of 0.4 or higher.
RESULT: criterion not met

QUERY: Test whether the compound "NC(N)=NCc1cn(CCc2c[nH]c3ccccc23)nn1" records composite z-score of 0.4 or higher.
RESULT: criterion met

QUERY: Test whether the compound "C#CCNC(=O)[C@H](Cc1ccccc1)NC(=O)[C@@H](N=[N+]=[N-])C(C)C" records composite z-score of 0.4 or higher.
RESULT: criterion met

====

assay: RPMI8226 myeloma cell viability, profiling panel, resazurin fluorescence, basal, 24 h, PK04 Diversity Set (AID 1180); settings: higher = more signal;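 also: RPMI8826 multiple myeloma cell line at 5000 cells per well; test concentration not given here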
Reported Property: z-score

Here is how some compounds turned out for z-score.
>  <Compound String>
COCCOC(=O)N1C(=O)[C@@]2(c3ccccc31)[C@H](c1ccc(OCCO)cc1)N1[C@H](c3ccccc3)[C@H](c3ccccc3)OC(=O)[C@H]1[C@@H]2C(=O)Nc1nc2ccccc2s1

>  <z-score>
0.0486

$$$$
>  <Compound String>
CC(C)(C)OC(=O)CC[C@@]1(C(=O)O)N=C(c2ccc(OCCCO)cc2)O[C@@H]1c1ccccc1CN=[N+]=[N-]

>  <z-score>
-1.09

$$$$

Please turn your attention to the following entry.
QUERY: Consider the compound "COc1cc(CO)cc(I)c1O[C@H]1C=C(C(=O)NCCO)C[C@@H](N(CC2CCCCC2)C(=O)c2ccc(C(F)(F)F)cc2)[C@@H]1O" and give its measured z-score.
RESULT: 0.508

====

Recorded composite z-score values for a group of compounds are listed next.
assay: small-molecule microarray binders of probe aDKK1, primary screen, biochemical, biotinylated probe, 635/667 nm fluorescence (AID 1099); conditions: higher = more signal;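 also: score merges 667nm spot fluorescence with signal to noise across triplicate slides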

Here is how some compounds turned out for composite z-score.
>  <Compound String>
C=C(CCCC)C(=O)CC[C@@H](OC(=O)c1cccnc1)c1ccccc1OCCO

>  <composite z-score>
-0.0709

$$$$
>  <Compound String>
C=CC[C@]12N=C(c3ccc(OCCCO)cc3)O[C@H]1c1ccccc1N(C)C2=O

>  <composite z-score>
0.765

$$$$
>  <Compound String>
COCCOC(=O)N1C(=O)[C@@]2(c3ccccc31)[C@H](C(=O)N1CCN(c3ncccn3)CC1)[C@H]1C(=O)O[C@H](c3ccccc3)[C@H](c3ccccc3)N1[C@@H]2c1ccc(OCCO)cc1

>  <composite z-score>
0.657

$$$$

Please turn your attention to the following entry.
QUERY: Consider the compound "CC(C)C(=C=CC[C@@H](O)c1ccccc1OCCO)C[C@@H](O)COCc1ccccc1" and give its measured composite z-score.
RESULT: 0.469

====

test: small-molecule microarray binders of probe aShh, primary screen, biochemical, biotinylated probe, 635/667 nm fluorescence (AID 1114); settings: higher = more signal;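 also: probe is biotin-labelled aShh protein from a stem cell growth factor screen; measures binding of labelled protein to compounds printed on the slide; score merges feature fluorescence at 667 nm with signal-to-noise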
Reported Property: composite z-score
Output: the number by itself.

Here is how some compounds turned out for composite z-score.
>  <Compound>
CC(C)CN1C(=O)[C@@]2(c3ccc([N+](=O)[O-])cc3)CC(=O)N(CC34CC5CC(CC(C5)C3)C4)[C@@H]2c2ccc(CO)cc21

>  <Measurement>
0.151

$$$$
>  <Compound>
CCCc1cccc(=O)o1

>  <Measurement>
0.0723

$$$$
>  <Compound>
Cc1ccc(S[C@]2(C(=O)NCc3ccccc3)CC(=O)N(C(C)C)[C@@H]2c2ccc(CO)cc2I)cc1

>  <Measurement>
-0.229

$$$$
>  <Compound>
CCOC(=O)C[C@H]1[C@H](OC(=O)c2ccc(-c3ccccc3)cc2)[C@@H](NC(=O)c2ccc3ccccc3n2)c2cc(OCCCO)ccc2N1C(=O)c1ccccc1

>  <Measurement>
-0.0904

$$$$
>  <Compound>
COc1ccc([Si](C)(C)[C@@H]2[C@@H](CCO)O[C@]3(C(=O)N(Cc4cccc(N5C(=O)c6ccccc6Oc6ccccc65)c4)c4ccccc43)[C@H]2C)cc1

>  <Measurement>
-0.221

$$$$

QUERY: Consider the compound "COC(=O)[C@@]1(Cc2ccccc2)[C@H]2c3cc(C(=O)N4CCCC4)[nH]c3C[C@H]2CN1C(=O)c1ccccc1" and give its measured composite z-score.
RESULT: -0.243

QUERY: Consider the compound C=CCC(OC(C)=O)[C@@H]1[C@@H](N(Cc2cc3ccccc3o2)C(=O)Cc2ccc(F)cc2)c2cc(OCCCO)ccc2N1C(=O)c1ccc2ccccc2n1 (some centres not stated) and give its measured composite z-score.
RESULT: -0.426

All values here come from PubChem BioAssay.
